- assay_system: UniProt:P07861
- Sequence (P07861 1-750): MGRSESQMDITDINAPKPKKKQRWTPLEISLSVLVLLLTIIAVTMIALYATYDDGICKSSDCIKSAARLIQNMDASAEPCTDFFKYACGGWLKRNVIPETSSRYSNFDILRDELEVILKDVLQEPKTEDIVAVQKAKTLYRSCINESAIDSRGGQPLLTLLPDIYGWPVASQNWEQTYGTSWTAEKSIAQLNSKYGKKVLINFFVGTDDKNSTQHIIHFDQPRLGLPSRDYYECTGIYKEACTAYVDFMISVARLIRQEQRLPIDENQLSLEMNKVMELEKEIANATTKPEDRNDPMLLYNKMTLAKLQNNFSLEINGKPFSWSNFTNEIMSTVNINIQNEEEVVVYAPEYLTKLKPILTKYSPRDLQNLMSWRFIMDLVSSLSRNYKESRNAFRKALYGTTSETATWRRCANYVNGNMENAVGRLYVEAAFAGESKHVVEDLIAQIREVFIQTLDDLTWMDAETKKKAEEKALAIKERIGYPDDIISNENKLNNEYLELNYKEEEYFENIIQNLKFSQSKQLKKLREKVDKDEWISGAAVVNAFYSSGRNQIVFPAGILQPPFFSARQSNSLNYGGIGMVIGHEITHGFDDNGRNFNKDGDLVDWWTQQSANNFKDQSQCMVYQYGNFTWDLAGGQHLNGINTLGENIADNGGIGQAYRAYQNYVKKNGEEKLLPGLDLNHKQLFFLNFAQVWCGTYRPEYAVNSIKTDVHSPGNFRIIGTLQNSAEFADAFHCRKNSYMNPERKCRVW
Counter-ions that a name gives are not always drawn.
Provide the reported IC50 of each item.

# example entries with known answers
[[record]]
compound = "O=C(O)[C@H](Cc1ccc(-c2ccccc2)cc1)NC(=O)[C@H](Cc1cccs1)N[C@@H](CCc1ccccc1)C(=O)O"
parameter_measured = "IC50"
experimental_result = "10 nM"

[[record]]
compound = "CC(C)C[C@H](N[C@@H](CC(=O)NCc1ccccc1)C(=O)O)C(=O)N[C@@H](Cc1ccc(-c2ccccc2)cc1)C(=O)O"
parameter_measured = "IC50"
experimental_result = "53 nM"

[[record]]
compound = "CC(C)C[C@H](N[C@@H](CCc1ccccc1)C(=O)O)C(=O)N[C@@H](Cc1ccc(-c2ccccc2)cc1)C(=O)O [Compound 1, disodium salt]"
parameter_measured = "IC50"
experimental_result = "27.7 nM"


Could you report IC50 for every entry in the following list?
1. CC(C)C[C@H](N[C@@H](CCC(=O)Nc1ccccc1)C(=O)O)C(=O)N[C@@H](Cc1ccc(-c2ccccc2)cc1)C(=O)O
2. CC(C)[C@H](N[C@@H](CCc1ccccc1)C(=O)O)C(=O)N[C@@H](Cc1ccc(-c2ccccc2)cc1)C(=O)O

Result:
1. 27 nM
2. 41 nM

###

Provide the reported IC50 of each item.
- assay_system: ACE (Oryctolagus cuniculus)
- Sequence (P12822 34-1310): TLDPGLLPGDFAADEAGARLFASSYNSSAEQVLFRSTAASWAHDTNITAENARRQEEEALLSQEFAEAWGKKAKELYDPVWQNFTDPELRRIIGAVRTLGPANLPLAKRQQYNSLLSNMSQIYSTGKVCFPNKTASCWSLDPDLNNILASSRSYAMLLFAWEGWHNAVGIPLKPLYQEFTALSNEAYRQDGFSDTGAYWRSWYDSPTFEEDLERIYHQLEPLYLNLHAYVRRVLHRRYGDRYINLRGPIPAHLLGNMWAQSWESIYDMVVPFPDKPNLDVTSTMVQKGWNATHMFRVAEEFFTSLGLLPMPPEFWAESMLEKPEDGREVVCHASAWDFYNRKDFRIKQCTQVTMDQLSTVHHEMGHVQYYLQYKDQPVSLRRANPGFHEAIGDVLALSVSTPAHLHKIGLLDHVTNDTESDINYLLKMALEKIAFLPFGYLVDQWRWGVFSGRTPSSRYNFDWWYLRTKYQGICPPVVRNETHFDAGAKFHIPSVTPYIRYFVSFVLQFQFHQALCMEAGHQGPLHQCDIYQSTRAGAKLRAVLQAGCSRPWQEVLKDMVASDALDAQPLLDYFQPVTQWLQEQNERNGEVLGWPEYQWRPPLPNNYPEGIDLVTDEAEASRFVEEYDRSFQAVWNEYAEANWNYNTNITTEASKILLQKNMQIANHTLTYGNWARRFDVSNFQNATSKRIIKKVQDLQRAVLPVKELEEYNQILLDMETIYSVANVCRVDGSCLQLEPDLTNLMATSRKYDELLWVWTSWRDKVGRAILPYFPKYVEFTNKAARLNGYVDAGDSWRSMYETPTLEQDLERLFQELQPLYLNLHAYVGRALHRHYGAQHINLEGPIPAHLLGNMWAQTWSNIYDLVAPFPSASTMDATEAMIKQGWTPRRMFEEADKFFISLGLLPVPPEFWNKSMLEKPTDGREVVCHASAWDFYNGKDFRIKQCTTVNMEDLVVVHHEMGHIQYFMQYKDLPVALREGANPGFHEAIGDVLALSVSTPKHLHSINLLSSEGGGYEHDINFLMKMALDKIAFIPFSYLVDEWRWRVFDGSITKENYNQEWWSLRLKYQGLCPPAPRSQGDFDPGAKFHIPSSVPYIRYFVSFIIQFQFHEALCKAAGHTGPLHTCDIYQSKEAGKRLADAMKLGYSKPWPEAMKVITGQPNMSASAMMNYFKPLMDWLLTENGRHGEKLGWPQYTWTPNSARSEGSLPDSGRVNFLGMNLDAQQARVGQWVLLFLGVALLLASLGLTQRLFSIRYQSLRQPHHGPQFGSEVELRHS
Structures can show the parent of a compound that is named as a salt.
Answers are plain numbers, in nM.

# example entries with known answers
[[record]]
compound = "CC(C)C[C@H](N[C@@H](CCC(=O)Nc1ccccc1)C(=O)O)C(=O)N[C@@H](Cc1ccc(-c2ccccc2)cc1)C(=O)O"
assay_system = "ACE (Oryctolagus cuniculus)"
parameter_measured = "IC50"
uom = "nM"
experimental_result = 2.2

[[record]]
compound = "CC(C)C[C@H](N[C@@H](CCc1ccccc1)C(=O)O)C(=O)N[C@@H](Cc1ccc(-c2ccccc2)cc1)C(=O)O [Compound 1, disodium salt]"
assay_system = "ACE (Oryctolagus cuniculus)"
parameter_measured = "IC50"
uom = "nM"
experimental_result = 1.5

[[record]]
compound = "CC(C)[C@H](N[C@@H](CCc1ccccc1)C(=O)O)C(=O)N[C@@H](Cc1ccc(-c2ccccc2)cc1)C(=O)O"
assay_system = "ACE (Oryctolagus cuniculus)"
parameter_measured = "IC50"
uom = "nM"
experimental_result = 2

[[record]]
compound = "CC(C)C[C@H](N[C@@H](CC(=O)NCc1ccccc1)C(=O)O)C(=O)N[C@@H](Cc1ccc(-c2ccccc2)cc1)C(=O)O"
assay_system = "ACE (Oryctolagus cuniculus)"
parameter_measured = "IC50"
uom = "nM"
experimental_result = 15


Ask: Entry under review: "O=C(O)[C@H](Cc1ccc(-c2ccccc2)cc1)NC(=O)[C@H](Cc1cccs1)N[C@@H](CCc1ccccc1)C(=O)O" . Reported IC50?
Result: 1.8
